Molecular target: Mitogen-activated protein kinase 14 (Homo sapiens)
Sequence (Q16539 whole entry): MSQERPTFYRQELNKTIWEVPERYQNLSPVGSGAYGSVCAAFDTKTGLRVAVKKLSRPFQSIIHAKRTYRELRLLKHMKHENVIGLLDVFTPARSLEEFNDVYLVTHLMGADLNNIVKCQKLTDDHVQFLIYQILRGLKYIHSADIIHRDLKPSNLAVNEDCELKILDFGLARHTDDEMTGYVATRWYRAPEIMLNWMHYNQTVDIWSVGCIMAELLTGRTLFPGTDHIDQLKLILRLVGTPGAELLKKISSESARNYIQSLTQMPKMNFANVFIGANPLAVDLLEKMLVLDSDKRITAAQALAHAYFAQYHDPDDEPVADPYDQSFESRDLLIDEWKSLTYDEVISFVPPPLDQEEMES
Assay: Inhibition of p38alpha by HTRF assay
For each of the compounds below, state its pIC50.
Numbers only, as −log10 of the molar value.

Field: example entries. Status: answers known.
| CHEMICAL STRING | pIC50 |
| --- | --- |
| Cc1ccc(NC(=O)c2ccc3c(c2)OC(F)(F)O3)cc1C(=O)Nc1cnc(Nc2ccc(N3CCN(C)CC3)cc2)nc1 | 8.00 |
| Cc1ccc(NC(=O)c2cccc(C(F)(F)F)c2)cc1C(=O)Nc1cnc(NCCN2CCOCC2)nc1 | 8.22 |
| Cc1ccc(C(=O)Nc2cccc(C(F)(F)F)c2)cc1C(=O)Nc1cnc(Nc2ccc(N3CCN(C)CC3)cc2)nc1 | 8.00 |
| CCc1ccc(NC(=O)c2ccc3c(c2)OC(F)(F)O3)cc1C(=O)Nc1cnc(Nc2ccc(N3CCN(C)CC3)cc2)nc1 | 6.63 |

Okay, here is my list. What is pIC50 for each of these?
1. Cc1ccc(NC(=O)c2cc(F)cc(C(F)(F)F)c2)cc1C(=O)Nc1cnc(Nc2ccc(N3CCN(C)CC3)cc2)nc1
2. Cc1ccc(NC(=O)c2cccc(C(F)(F)F)c2)cc1C(=O)Nc1cnc(Nc2ccc(N3CCN(C)CC3)cc2)nc1
3. Cc1ccc(NC(=O)c2ccccc2)cc1C(=O)Nc1cnc(Nc2ccc(N3CCN(C)CC3)cc2)nc1
4. CC(=O)Nc1ccc(C)c(C(=O)Nc2cnc(Nc3ccc(N4CCN(C)CC4)cc3)nc2)c1
5. CN1CCN(c2ccc(Nc3ncc(NC(=O)c4cc(NC(=O)c5ccc6c(c5)OC(F)(F)O6)ccc4Cl)cn3)cc2)CC1
6. CN1CCN(c2ccc(Nc3ncc(NC(=O)c4c(Cl)cccc4Cl)cn3)cc2)CC1
7. Cc1ccc(NC(=O)c2ccc(C(C)(C)C)cc2)cc1C(=O)Nc1cnc(Nc2ccc(N3CCN(C)CC3)cc2)nc1
8. Cc1ccc(NC(=O)c2cnoc2C)cc1C(=O)Nc1cnc(Nc2ccc(N3CCN(C)CC3)cc2)nc1

Result ::
[8.52, 8.30, 9.05, 7.20, 8.22, 5.97, 7.66, 6.75]

###

Biological target: Macrophage colony-stimulating factor 1 receptor (Homo sapiens, UniProt P07333)
Sequence (P07333 whole entry): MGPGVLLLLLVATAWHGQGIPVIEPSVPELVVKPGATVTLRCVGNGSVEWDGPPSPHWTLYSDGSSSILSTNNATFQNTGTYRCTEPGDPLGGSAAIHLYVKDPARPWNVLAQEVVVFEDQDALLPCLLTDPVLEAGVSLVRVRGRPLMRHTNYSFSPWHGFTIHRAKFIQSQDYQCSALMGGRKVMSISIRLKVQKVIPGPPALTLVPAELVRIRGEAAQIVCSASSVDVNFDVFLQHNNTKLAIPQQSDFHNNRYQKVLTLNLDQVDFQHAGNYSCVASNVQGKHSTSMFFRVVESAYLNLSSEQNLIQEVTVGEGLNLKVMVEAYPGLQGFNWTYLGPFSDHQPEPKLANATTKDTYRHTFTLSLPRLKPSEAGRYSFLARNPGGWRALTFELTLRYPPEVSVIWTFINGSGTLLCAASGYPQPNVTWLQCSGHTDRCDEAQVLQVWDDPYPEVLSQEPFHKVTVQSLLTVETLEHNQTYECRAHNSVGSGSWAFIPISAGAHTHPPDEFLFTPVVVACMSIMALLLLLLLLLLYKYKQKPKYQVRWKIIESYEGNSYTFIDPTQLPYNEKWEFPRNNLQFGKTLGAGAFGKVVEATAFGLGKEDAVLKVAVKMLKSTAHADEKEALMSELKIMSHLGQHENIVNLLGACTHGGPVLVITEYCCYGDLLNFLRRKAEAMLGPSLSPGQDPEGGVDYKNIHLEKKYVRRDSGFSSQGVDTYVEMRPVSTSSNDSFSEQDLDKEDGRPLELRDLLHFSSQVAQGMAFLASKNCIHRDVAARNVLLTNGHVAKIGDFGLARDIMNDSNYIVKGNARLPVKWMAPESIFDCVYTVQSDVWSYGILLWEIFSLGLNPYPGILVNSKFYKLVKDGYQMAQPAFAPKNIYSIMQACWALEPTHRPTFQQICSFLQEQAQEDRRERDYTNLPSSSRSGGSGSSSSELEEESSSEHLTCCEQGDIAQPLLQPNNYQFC
ENDPOINT LABEL: IC50 (nM)
One number for each entry, in nM.

Query :: Quick check: IC50 of `Cc1ccc(NC(=O)c2cccc(C(F)(F)F)c2)cc1C(=O)Nc1cnc(Nc2ccc(N3CCN(C)CC3)cc2)nc1` ?
Result :: 40

###

Molecular target: Serine/threonine-protein kinase pim-1 (Homo sapiens)
Sequence (P11309 whole entry): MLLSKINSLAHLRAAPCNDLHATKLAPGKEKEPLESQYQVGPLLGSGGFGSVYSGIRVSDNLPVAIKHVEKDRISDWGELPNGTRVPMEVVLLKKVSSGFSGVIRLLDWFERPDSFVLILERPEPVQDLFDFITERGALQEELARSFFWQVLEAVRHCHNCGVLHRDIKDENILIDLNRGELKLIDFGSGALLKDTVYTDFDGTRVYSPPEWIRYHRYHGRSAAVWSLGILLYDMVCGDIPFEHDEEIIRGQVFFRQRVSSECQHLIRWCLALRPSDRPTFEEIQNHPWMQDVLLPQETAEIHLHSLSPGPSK
pIC50: −log10 of the molar value.
ENDPOINT LABEL: pIC50

Query :: Field: pIC50 (Serine/threonine-protein kinase pim-1 (Homo sapiens)). Entry: `Cc1ccc(NC(=O)c2cccc(C(F)(F)F)c2)cc1C(=O)Nc1cnc(Nc2ccc(N3CCN(C)CC3)cc2)nc1`
Result :: < 4.52

###

Assay: Tmax in Sprague-Dawley rat at 2 mg/kg
Assay type: ADME, organism-based
Design: dose 2 mg/kg
Conditions: in vivo
ENDPOINT LABEL: log10 of Tmax (log10 of the value in min)
All values: base-10 log of Tmax in min.

| CHEMICAL STRING | log10 of Tmax |
| --- | --- |
| Cc1ccc(NC(=O)c2cccc(C(F)(F)F)c2)cc1C(=O)Nc1cnc(Nc2ccc(N3CCN(C)CC3)cc2)nc1 | 2.45 |
| Cc1ccc(NC(=O)c2ccc3c(c2)OC(F)(F)O3)cc1C(=O)Nc1cnc(Nc2ccc(N3CCN(C)CC3)cc2)nc1 | 1.40 |
| COc1cc(OC)cc(C(=O)Nc2ccc(C)c(C(=O)Nc3cnc(Nc4ccc(N5CCN(C)CC5)cc4)nc3)c2)c1 | 1.30 |

Could I get log10 of Tmax for every one of these entries?
1. Cc1ccc(NC(=O)c2cccc(C(F)(F)F)c2C)cc1C(=O)Nc1cnc(Nc2ccc(N3CCN(C)CC3)cc2)nc1
2. Cc1ccc(NC(=O)c2cc(F)cc(C(F)(F)F)c2)cc1C(=O)Nc1cnc(Nc2ccc(N3CCN(C)CC3)cc2)nc1

Result ::
1: 2.22; 2: 1.56
